- TARGET OR SYSTEM: T1, human CD8αα homodimer, recombinant protein (Acro Biosystems) (human, UniProt P01732 22-182)
- T1 construct: also called CD8αα antigen; biotinylated CD8α recombinant protein (CDA-H82E3)
- T1 sequence (P01732 22-182 limits assumed): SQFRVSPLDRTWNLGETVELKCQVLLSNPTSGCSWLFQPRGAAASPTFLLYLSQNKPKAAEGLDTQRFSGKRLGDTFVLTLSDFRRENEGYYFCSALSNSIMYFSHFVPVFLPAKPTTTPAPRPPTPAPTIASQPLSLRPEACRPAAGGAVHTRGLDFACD
- PROTOCOL DETAILS: BLI kinetic rate analysis, Fab fragment (temperature not given)
MEASURED PROPERTY: kon (M⁻¹ s⁻¹)
Field format: number, assumed M⁻¹ s⁻¹, no unit text.

Use the examples below as a reference point.
Field request: kon | item: CBD1445 Fab (VL D30A of CBD1033) (Fab, V domains shown) VH: QVQLVQSGAEVKKPGASVKVSCKASRYTFTDYNLHWVRQAPGQGLEWMGFIYPYNGGTGYAQKFQGRVTMTVDTSTSTAYMELSSLRSEDTAVYYCARDHRYNEGVSFDYWGQGTTVTVSS VL: DIQLTQSPSSLSASVGDRATITCRASESVAGFGNSFMNWYQQKPGKAPKLLIYLASNLESGVPSRFSGSGSGTDFTLTISSVQPEDFATYYCQQNNEDPYTFGQGTKLEIK
30700

Query (binder): CBD1622 Fab (VL D30S and VH N55Q of CBD1033) (Fab, V domains shown, also called D30S and N55Q) VH: QVQLVQSGAEVKKPGASVKVSCKASRYTFTDYNLHWVRQAPGQGLEWMGFIYPYQGGTGYAQKFQGRVTMTVDTSTSTAYMELSSLRSEDTAVYYCARDHRYNEGVSFDYWGQGTTVTVSS VL: DIQLTQSPSSLSASVGDRATITCRASESVSGFGNSFMNWYQQKPGKAPKLLIYLASNLESGVPSRFSGSGSGTDFTLTISSVQPEDFATYYCQQNNEDPYTFGQGTKLEIK ; field requested: kon
34300

Param item = CBD1382 (Fab, V domains shown) VH: QVQLVQSGAEVKKPGASVKVSCKASRYTFTDYNLHWVRQAPGQGLEWMGFIYPYAGGTGYAQKFQGRVTMTVDTSTSTAYMELSSLRSEDTAVYYCARDHRYNEGVSFDYWGQGTTVTVSS VL: DIQLTQSPSSLSASVGDRATITCRASESVDGFGNSFMNWYQQKPGKAPKLLIYLASNLESGVPSRFSGSGSGTDFTLTISSVQPEDFATYYCQQNNEDPYTFGQGTKLEIK ; retrieve measured kon.
80300

Dear colleague, I am looking for the recorded kon of the following binder: CBD1623 Fab (VL D30S and VH N55A of CBD1033) (Fab, V domains shown, also called D30S and N55A) VH: QVQLVQSGAEVKKPGASVKVSCKASRYTFTDYNLHWVRQAPGQGLEWMGFIYPYAGGTGYAQKFQGRVTMTVDTSTSTAYMELSSLRSEDTAVYYCARDHRYNEGVSFDYWGQGTTVTVSS VL: DIQLTQSPSSLSASVGDRATITCRASESVSGFGNSFMNWYQQKPGKAPKLLIYLASNLESGVPSRFSGSGSGTDFTLTISSVQPEDFATYYCQQNNEDPYTFGQGTKLEIK
114000

Which kon is reported for this binder? CBD1381 (Fab, V domains shown) VH: QVQLVQSGAEVKKPGASVKVSCKASRYTFTDYNLHWVRQAPGQGLEWMGFIYPYQGGTGYAQKFQGRVTMTVDTSTSTAYMELSSLRSEDTAVYYCARDHRYNEGVSFDYWGQGTTVTVSS VL: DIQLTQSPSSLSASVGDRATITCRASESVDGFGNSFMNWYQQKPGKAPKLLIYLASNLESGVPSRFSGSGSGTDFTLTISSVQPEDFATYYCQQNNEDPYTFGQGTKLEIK
78600

---
# kon lookup, item CBD1033 Fab (h1017-H2 / h1017-L2) (Fab, V domains shown, Expressed as F(ab) fragment; also called CBD1033 Fab molecule) VH: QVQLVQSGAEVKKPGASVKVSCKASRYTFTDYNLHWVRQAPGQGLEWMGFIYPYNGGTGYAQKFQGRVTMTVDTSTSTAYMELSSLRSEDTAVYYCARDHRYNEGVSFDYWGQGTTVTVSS VL: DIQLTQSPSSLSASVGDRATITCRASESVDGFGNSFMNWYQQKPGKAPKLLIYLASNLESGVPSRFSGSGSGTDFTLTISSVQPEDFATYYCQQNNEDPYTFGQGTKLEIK
35400

Could you share which kon value was measured for CBD1444 Fab (VL D30S of CBD1033) (Fab, V domains shown) VH: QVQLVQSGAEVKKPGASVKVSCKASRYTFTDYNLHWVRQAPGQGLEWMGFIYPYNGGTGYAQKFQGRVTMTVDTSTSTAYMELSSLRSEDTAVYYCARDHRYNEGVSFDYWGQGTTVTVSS VL: DIQLTQSPSSLSASVGDRATITCRASESVSGFGNSFMNWYQQKPGKAPKLLIYLASNLESGVPSRFSGSGSGTDFTLTISSVQPEDFATYYCQQNNEDPYTFGQGTKLEIK ?
25500

Report kon for CBD1443 Fab (VL D30E of CBD1033) (Fab, V domains shown) VH: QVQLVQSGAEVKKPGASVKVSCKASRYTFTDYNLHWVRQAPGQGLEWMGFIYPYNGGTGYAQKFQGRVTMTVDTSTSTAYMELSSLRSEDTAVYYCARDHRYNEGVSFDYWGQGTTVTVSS VL: DIQLTQSPSSLSASVGDRATITCRASESVEGFGNSFMNWYQQKPGKAPKLLIYLASNLESGVPSRFSGSGSGTDFTLTISSVQPEDFATYYCQQNNEDPYTFGQGTKLEIK please.
28400

Please report the recorded kon for CBD1380 (Fab, V domains shown) VH: QVQLVQSGAEVKKPGASVKVSCKASRYTFTDYNLHWVRQAPGQGLEWMGFIYPYSGGTGYAQKFQGRVTMTVDTSTSTAYMELSSLRSEDTAVYYCARDHRYNEGVSFDYWGQGTTVTVSS VL: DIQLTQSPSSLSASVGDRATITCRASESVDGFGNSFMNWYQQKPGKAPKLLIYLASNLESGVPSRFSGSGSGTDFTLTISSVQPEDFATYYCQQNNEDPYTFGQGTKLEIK .
59900
